Target: Histone-lysine N-methyltransferase EZH2 (Homo sapiens, UniProt Q15910, Y641N)
Sequence (Q15910 whole entry Y641N): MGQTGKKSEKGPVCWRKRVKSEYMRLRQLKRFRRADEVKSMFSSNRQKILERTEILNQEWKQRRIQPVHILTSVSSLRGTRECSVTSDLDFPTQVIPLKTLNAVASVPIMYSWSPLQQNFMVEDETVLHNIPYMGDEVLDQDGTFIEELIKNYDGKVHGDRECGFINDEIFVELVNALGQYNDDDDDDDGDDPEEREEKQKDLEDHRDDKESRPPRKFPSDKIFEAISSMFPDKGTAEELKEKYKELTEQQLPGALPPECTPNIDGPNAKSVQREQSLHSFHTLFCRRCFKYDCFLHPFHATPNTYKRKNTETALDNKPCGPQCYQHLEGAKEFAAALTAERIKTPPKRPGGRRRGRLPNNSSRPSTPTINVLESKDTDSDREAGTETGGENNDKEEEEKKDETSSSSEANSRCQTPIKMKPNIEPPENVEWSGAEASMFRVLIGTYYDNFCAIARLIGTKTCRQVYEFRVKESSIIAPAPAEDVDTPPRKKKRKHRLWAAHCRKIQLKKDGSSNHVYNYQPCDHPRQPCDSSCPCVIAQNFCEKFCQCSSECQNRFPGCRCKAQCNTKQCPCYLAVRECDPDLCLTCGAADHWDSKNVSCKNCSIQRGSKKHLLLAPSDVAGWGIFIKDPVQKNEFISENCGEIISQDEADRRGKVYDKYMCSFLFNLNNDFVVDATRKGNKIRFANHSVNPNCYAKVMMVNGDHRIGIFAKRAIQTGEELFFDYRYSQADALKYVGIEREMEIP
Assay: Inhibition of EZH2 Y641N mutant (unknown origin) using oligonucleosomes as substrate after 60 mins in presence of [3H]SAM by scintillation counting analysis
metric: pKi
// field semantics: pKi = negative decimal log of concentration (mol/L)

Examples with their reported pKi follow.
{"compound": "COC(c1cc(Cl)c2c(c1Cl)C(=O)N(Cc1c(C)cc(C)[nH]c1=O)CC2)C1CCN(C)CC1 (single isomer, unassigned; (-))", "metric": "pKi", "resultNumber": 6.59}
{"compound": "Cc1cc(C)c(CN2CCc3c(Cl)cc(C(CO)C4CCOCC4)c(Cl)c3C2=O)c(=O)[nH]1 (single isomer, unassigned; (-))", "metric": "pKi", "resultNumber": 9.82}

Req: Fill blank: measured pKi of the compound Cc1cc(C)c(CN2CCc3c(Cl)cc(C(CO)C4CCOC4)c(Cl)c3C2=O)c(=O)[nH]1 (stereo in doubt) is ____.
Resp: 6.82

Req: Recorded pKi for Cc1cc(C)c(CN2CCc3c(Cl)cc([C@H](C)CO)c(Cl)c3C2=O)c(=O)[nH]1 , please?
Resp: 7.77

Req: // query pKi value for entry COC(c1cc(Cl)c2c(c1Cl)C(=O)N(Cc1c(C)cc(C)[nH]c1=O)CC2)C1CCN(C(=O)CO)CC1 (single isomer, unassigned; (-))
Resp: 7.15

Req: Given the compound COc1cc(C)[nH]c(=O)c1CN1CCc2c(Cl)cc(C(OC)C3CCOC3)c(Cl)c2C1=O (single isomer, unassigned; form 2) , what is its reported pKi?
Resp: 7.04

Req: If you can, please state the reported pKi value of COC(c1cc(Cl)c2c(c1Cl)C(=O)N(Cc1c(C)cc(C)[nH]c1=O)CC2)C1CCOC1 (single isomer, unassigned; (-)10c) .
Resp: 7.52

Req: Recorded pKi for CCC(O)c1cc(Cl)c2c(c1Cl)C(=O)N(Cc1c(C)cc(C)[nH]c1=O)CC2 (single isomer, unassigned; (+)) , please?
Resp: 6.89
